B1: RAB40A (parent)
chain: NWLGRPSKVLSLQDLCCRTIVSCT

# Variants of: B1
# ASSAY: protein stability index of a GFP-peptide fusion (GPS, HEK-293T) (PSI 1-6); higher = more stable;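 also: lentivirally expressed fusions sorted by FACS into six bins by GFP to DsRed ratio, PSI derived from sequencing read proportions per bin multiplied by bin number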
# EXPERIMENTAL SETUP: c terminus: a fixed tail appended
protein stability index of 2 or higher: rule met. Under 2: rule not met.

| CHANGES | ASSIGNED CLASS |
| --- | --- |
| I20S | rule met |
| V9A | rule met |
| L15Q | rule met |
| L12T | rule not met |
| R18W | rule not met |
| P6Y | rule not met |
| D14S | rule met |
| T24G | rule met |
| L12P | rule not met |
| Q13K | rule met |
| W2E | rule met |
| C17F | rule met |
| L15M | rule met |
| C17A | rule met |
| T24N | rule met |
| I20K | rule met |
| Q13H | rule met |
| R5P | rule met |
| C23L | rule met |
| I20N | rule not met |
| G4L | rule met |
| C23G | rule met |
| C16D | rule met |
| P6N | rule met |
| Q13F | rule met |
| T19V | rule met |
| V9T | rule met |
| C16T | rule met |
| R18Q | rule met |

Where do these numbers come from? They come from the supplement of paper PMC10567573.
